Below, each entry is listed with its recorded mortality at 10 ppm.
system: Myzus persicae Sulzer--Green peach aphid; experiment: Effect on green peach aphid (mortality, sprayed eggplant seedlings); type: in vivo; conditions: Myzus persicae, 48 h, 10 ppm
propertyMeasured: mortality at 10 ppm

molecule: O=[N+]([O-])N=C1NCCCN1CC1CCOC1 (centres unmarked)
reading: 100%
//
molecule: CC1(C)CC(CN2CCCNC2=N[N+](=O)[O-])CO1 (centres unmarked)
reading: 100%
//
molecule: CC(=O)N1CCCN(CC2COC(C)C2)C1=N[N+](=O)[O-] (centres unmarked)
reading: 100%
//
molecule: CC(=O)N1CCCN(CC2CCOC2)C1=N[N+](=O)[O-] (centres unmarked)
reading: 100%
//
molecule: CC(=O)N1CCN(CC2CCOC2)C1=N[N+](=O)[O-] (centres unmarked)
reading: 63%

###

test system: Myzus persicae Sulzer--Green peach aphid; test: Effect on green peach aphid (mortality, sprayed eggplant seedlings); assay type: in vivo; conditions: Myzus persicae, 48 h, 10 ppm

compound: O=[N+]([O-])N=C1NCCN1CC1CCCO1 (stereo not shown) [Comparative Compound (1), reference compound]
targetOfAssay: Myzus persicae Sulzer--Green peach aphid
mortality at 10 ppm: 0%

compound: CC1CC(CN2CCCNC2=N[N+](=O)[O-])CO1 (stereo not shown)
targetOfAssay: Myzus persicae Sulzer--Green peach aphid
mortality at 10 ppm: 100%

compound: CC1(C)CC(CN2CCNC2=N[N+](=O)[O-])CO1 (stereo not shown)
targetOfAssay: Myzus persicae Sulzer--Green peach aphid
mortality at 10 ppm: 82%

compound: CC1CC(CN2CCNC2=N[N+](=O)[O-])CO1 (stereo not shown)
targetOfAssay: Myzus persicae Sulzer--Green peach aphid
mortality at 10 ppm: 100%

compound: CC(C)C(=O)N1CCCN(CC2CCOC2)C1=N[N+](=O)[O-] (stereo not shown)
targetOfAssay: Myzus persicae Sulzer--Green peach aphid
mortality at 10 ppm: 86%

compound: O=[N+]([O-])N=C1NCCN1CC1CCOC1 (stereo not shown)
targetOfAssay: Myzus persicae Sulzer--Green peach aphid
mortality at 10 ppm: 67%

compound: CCCC(=O)N1CCN(CC2CCOC2)C1=N[N+](=O)[O-] (stereo not shown)
targetOfAssay: Myzus persicae Sulzer--Green peach aphid
mortality at 10 ppm: 0%

###

Listed here: items and their measured mortality at 100 ppm.
system: Myzus persicae Sulzer--Green peach aphid; assay: Effect on green peach aphid (mortality, sprayed eggplant seedlings); type: in vivo; conditions: Myzus persicae, 48 h, 100 ppm

compound: CC(=O)N1CCCN(CC2CCOC2)C1=N[N+](=O)[O-] (stereo not drawn)
targetOfAssay: Myzus persicae Sulzer--Green peach aphid
mortality at 100 ppm: 100%
//
compound: CC1(C)CC(CN2CCCNC2=N[N+](=O)[O-])CO1 (stereo not drawn)
targetOfAssay: Myzus persicae Sulzer--Green peach aphid
mortality at 100 ppm: 100%
//
compound: CCCC(=O)N1CCN(CC2CCOC2)C1=N[N+](=O)[O-] (stereo not drawn)
targetOfAssay: Myzus persicae Sulzer--Green peach aphid
mortality at 100 ppm: 66%
//
compound: CC1CC(CN2CCNC2=N[N+](=O)[O-])CO1 (stereo not drawn)
targetOfAssay: Myzus persicae Sulzer--Green peach aphid
mortality at 100 ppm: 100%
//
compound: CC1(C)CC(CN2CCNC2=N[N+](=O)[O-])CO1 (stereo not drawn)
targetOfAssay: Myzus persicae Sulzer--Green peach aphid
mortality at 100 ppm: 100%
//
compound: CC1CC(CN2CCCNC2=N[N+](=O)[O-])CO1 (stereo not drawn)
targetOfAssay: Myzus persicae Sulzer--Green peach aphid
mortality at 100 ppm: 100%
//
compound: CC(=O)N1CCCN(CC2COC(C)C2)C1=N[N+](=O)[O-] (stereo not drawn)
targetOfAssay: Myzus persicae Sulzer--Green peach aphid
mortality at 100 ppm: 100%
//
compound: CCC(=O)N1CCCN(CC2CCOC2)C1=N[N+](=O)[O-] (stereo not drawn)
targetOfAssay: Myzus persicae Sulzer--Green peach aphid
mortality at 100 ppm: 100%
//
compound: O=[N+]([O-])N=C1NCCN1CC1CCCO1 (stereo not drawn) [Comparative Compound (1), reference compound]
targetOfAssay: Myzus persicae Sulzer--Green peach aphid
mortality at 100 ppm: 0%
